I'd appreciate it if you could supply log10(Ki) values for the items below.
Measured On: human D3 receptor (Homo sapiens (Human))
Sequence (P35462 whole entry): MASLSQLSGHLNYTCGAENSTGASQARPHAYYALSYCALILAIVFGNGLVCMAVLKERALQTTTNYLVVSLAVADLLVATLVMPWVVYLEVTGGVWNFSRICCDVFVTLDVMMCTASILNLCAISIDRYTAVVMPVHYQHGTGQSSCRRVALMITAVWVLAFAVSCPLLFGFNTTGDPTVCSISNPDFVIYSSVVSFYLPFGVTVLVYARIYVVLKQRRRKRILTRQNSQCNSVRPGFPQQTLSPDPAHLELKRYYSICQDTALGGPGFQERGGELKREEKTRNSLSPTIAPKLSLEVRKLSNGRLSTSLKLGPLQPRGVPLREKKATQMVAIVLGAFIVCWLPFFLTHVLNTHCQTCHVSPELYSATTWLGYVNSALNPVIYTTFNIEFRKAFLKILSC
Protocol Description: Radioligand binding ([3H]-spiperone) to human D3 receptor, HEK293 EBNA membranes
Assay Context: HEK293 EBNA cells expressing human D3 receptor
Scale type: logarithmic (base 10). Underlying Ki unit: nM.

Query string: Lab note: human D3 receptor (Homo sapiens (Human)) assay, enter log10(Ki) for O=C(Cc1ccc2c(c1)OCO2)N[C@H]1CC[C@H](CCN2CCC(c3coc4ccccc34)CC2)CC1 here
Result string: 0.22

Query string: Give log10(Ki) only, for CC[C@@H](O)CC(=O)N[C@H]1CC[C@H](CCN2CCC(c3coc4ccccc34)CC2)CC1 , using human D3 receptor (Homo sapiens (Human)) data.
Result string: 0.40

Query string: Provide human D3 receptor (Homo sapiens (Human)) log10(Ki) reading for CC(C)(C)c1ccc(S(=O)(=O)N[C@H]2CC[C@H](CCN3CCC(c4coc5ccccc45)CC3)CC2)cc1 .
Result string: 1.08

Query string: Quote human D3 receptor (Homo sapiens (Human)) log10(Ki) for entry O=C(N[C@H]1CC[C@H](CCN2CCC(c3coc4ccccc34)CC2)CC1)c1ccc(N2CCCCC2)cc1 .
Result string: 0.64

Query string: Fill in log10(Ki) for O=C(Cc1noc2ccccc12)N[C@H]1CC[C@H](CCN2CCC(c3coc4ccccc34)CC2)CC1 tested with human D3 receptor (Homo sapiens (Human)).
Result string: 2.16

Query string: Provide the reported log10(Ki) (system: human D3 receptor (Homo sapiens (Human))) for CS(=O)(=O)c1ccc(C(=O)N[C@H]2CC[C@H](CCN3CCC(c4coc5ccccc45)CC3)CC2)cc1
Result string: 1.40

Query string: Recall the reported log10(Ki) of Cc1cc(C(=O)N[C@H]2CC[C@H](CCN3CCC(c4coc5ccccc45)CC3)CC2)on1 when tested on human D3 receptor (Homo sapiens (Human)).
Result string: 0.63

Query string: State log10(Ki) on human D3 receptor (Homo sapiens (Human)). Entry: O=C(N[C@H]1CC[C@H](CCN2CCC(c3coc4ccccc34)CC2)CC1)C1CCCOC1 (stereo partly drawn)
Result string: 0.77

Query string: Fill in: log10(Ki) on human D3 receptor (Homo sapiens (Human)), entry CC(C)(C)C(=O)N[C@H]1CC[C@H](CCN2CCC(c3coc4ccccc34)CC2)CC1
Result string: 1.10

Query string: Retrieve log10(Ki) on human D3 receptor (Homo sapiens (Human)); query O=C(N[C@H]1CC[C@H](CCN2CCC(c3coc4ccccc34)CC2)CC1)c1ccc(N2CCS(=O)(=O)CC2)cc1
Result string: 0.53

Query string: Please report log10(Ki) with human D3 receptor (Homo sapiens (Human)) for item O=C(N[C@H]1CC[C@H](CCN2CCC(c3coc4ccccc34)CC2)CC1)c1ccc(-n2cccc2)cc1 .
Result string: 0.66

Query string: State the measured log10(Ki) (human D3 receptor (Homo sapiens (Human))) of O=C(N[C@H]1CC[C@H](CCN2CCC(c3coc4ccccc34)CC2)CC1)c1ccc(Cl)cc1Cl
Result string: 0.64

Query string: State the measured log10(Ki) (human D3 receptor (Homo sapiens (Human))) of O=C(N[C@H]1CC[C@H](CCN2CCC(c3coc4ccccc34)CC2)CC1)C12CC3CC(CC(C3)C1)C2
Result string: 1.10

Query string: Give log10(Ki) for O=C(N[C@H]1CC[C@H](CCN2CCC(c3coc4ccccc34)CC2)CC1)C1CCCO1 (mixture of isomers) tested on human D3 receptor (Homo sapiens (Human)).
Result string: 0.96

Query string: With human D3 receptor (Homo sapiens (Human)) as the test system, provide measured log10(Ki) for this compound: CC#CC(=O)N[C@H]1CC[C@H](CCN2CCC(c3coc4ccccc34)CC2)CC1
Result string: 0.32
